Experiment: log p of Compound 1
Type: physicochemical
PARAMETER: logP
Hey, just send me the number, nothing else.

Query string: Suppose we examine the molecule C[C@@H](NC(=O)c1ncnc(N)c1Cl)c1ncc(C(=O)Nc2cc(C(F)(F)F)c(Cl)cn2)s1 ; what logP value has been reported?
Result string: 3.63

* * *

Assay: Solubility of Compound 1
Assay type: physicochemical
PARAMETER: solubility

Query string: Suppose we examine the compound C[C@@H](NC(=O)c1ncnc(N)c1Cl)c1ncc(C(=O)Nc2cc(C(F)(F)F)c(Cl)cn2)s1 ; what solubility value has been reported?
Result string: < 1000 µg/mL
